Would you mind telling me the reported IC50 of each entry?
system-under-test: CCK-2R (Rattus norvegicus)
Construct: The CCK-2R expressing rat pancreatic tumor cells AR4-2J; host or cells: AR4-2J rat pancreatic tumor cells
Sequence (P30553 whole entry): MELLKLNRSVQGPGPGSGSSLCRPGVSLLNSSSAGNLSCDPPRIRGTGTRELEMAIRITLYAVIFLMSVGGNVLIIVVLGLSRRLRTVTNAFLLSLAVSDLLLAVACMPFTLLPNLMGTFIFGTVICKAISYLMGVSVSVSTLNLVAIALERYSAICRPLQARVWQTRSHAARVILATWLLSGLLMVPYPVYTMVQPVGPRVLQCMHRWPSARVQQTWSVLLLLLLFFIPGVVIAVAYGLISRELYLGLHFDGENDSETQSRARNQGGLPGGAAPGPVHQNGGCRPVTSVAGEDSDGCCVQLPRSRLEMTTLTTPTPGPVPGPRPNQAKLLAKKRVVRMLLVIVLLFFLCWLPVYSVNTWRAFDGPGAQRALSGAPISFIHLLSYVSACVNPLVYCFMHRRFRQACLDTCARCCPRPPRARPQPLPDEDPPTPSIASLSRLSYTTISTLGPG
test-summary: Determination of IC50: CCK-2R affinity on AR4-2J cells, competition with [^177Lu]Lu-DOTA-PP-F11N
Format: binding
assay-context: AR4-2J cells; ^natLu-labeled; read-out: IC50 [nM] (n = 3), ^natLu-labeled
Starred links: 1 amine or outer side, 2 acyl side, 3 side chain; linkers in the order of their positions; H or OH if unused. Non-standard residues stand in square brackets, D forms with d. Residues, ends and D or L forms follow the SMILES beside them. *: point of attachment. Benzoyl(4-SiFtBu2) = CC(C)(C)[Si](F)(c1ccc(C(=O)*)cc1)C(C)(C)C; DOTA = O=C(O)CN1CCN(CC(=O)O)CCN(CC(=O)*)CCN(CC(=O)O)CC1; d(γGlu) = O=C(O)[C@@H](CCC(=O)[*:2])N[*:1]; PEG8 = NCCOCCOCCOCCOCCOCCOCCOCCOCCC(=O)O; 1Nal = N[C@@H](Cc1cccc2ccccc12)C(=O)O; PEG5 = NCCOCCOCCOCCOCCOCCC(=O)O; NMeNle = CCCC[C@H](NC)C(=O)O; PEG4 = NCCOCCOCCOCCOCCC(=O)O; dDap = NC[C@@H](N)C(=O)O
Express the reported value numerically, then name its unit.

Enquiry: Field request: IC50 | item: CCCC[C@@H](C(=O)N[C@@H](CC(=O)O)C(=O)N[C@@H](Cc1cccc2ccccc12)C(N)=O)N(C)C(=O)[C@H](Cc1c[nH]c2ccccc12)NC(=O)CNC(=O)CNC(=O)CNC(=O)CNC(=O)CN1CCN(CC(=O)O)CCN(CC(=O)O)CCN(CC(=O)O)CC1 [DOTA-CCK-55, DOTA-(Gly)4-Trp-(N-Me)Nle-Asp-1-Nal-NH2] ({DOTA}-GGGGW[NMeNle]D[1Nal]-NH2)
Return: 8.5 nM

Enquiry: Field request: IC50 | item: CCCC[C@@H](C(=O)N[C@@H](CC(=O)O)C(=O)N[C@@H](Cc1cccc2ccccc12)C(N)=O)N(C)C(=O)[C@H](Cc1c[nH]c2ccccc12)NC(=O)CCOCCOCCOCCOCCOCCOCCOCCOCCNC(=O)CC[C@@H](NC(=O)CN1CCN(CC(=O)O)CCN(CC(=O)O)CCN(CC(=O)O)CC1)C(=O)O [DOTA-CCK-80] ({DOTA-d(γGlu)-PEG8}-W[NMeNle]D[1Nal]-NH2)
Return: 7.9 nM

Enquiry: Field request: IC50 | item: CCCC[C@@H](C(=O)N[C@@H](CC(=O)O)C(=O)N[C@@H](Cc1cccc2ccccc12)C(N)=O)N(C)C(=O)[C@H](Cc1c[nH]c2ccccc12)NC(=O)CCOCCOCCOCCOCCNC(=O)CC[C@@H](NC(=O)CCOCCOCCOCCOCCOCCNC(=O)[C@@H](CNC(=O)c1ccc([Si](F)(C(C)(C)C)C(C)(C)C)cc1)NC(=O)CN1CCN(CC(=O)O)CCN(CC(=O)O)CCN(CC(=O)O)CC1)C(=O)O [DOTA-rhCCK-67] ({DOTA}-[dDap](Benzoyl(4-SiFtBu2))[PEG5][d(γGlu)][PEG4]W[NMeNle]D[1Nal]-NH2)
Return: 13 nM

---

system-under-test: CCK-2R (Rattus norvegicus)
Construct: The CCK-2R expressing rat pancreatic tumor cells AR4-2J; host or cells: AR4-2J rat pancreatic tumor cells
test-summary: Determination of IC50: CCK-2R affinity on AR4-2J cells, competition with [^177Lu]Lu-DOTA-PP-F11N
Assay type: binding
assay-context: AR4-2J cells; ^natLu-labeled; read-out: IC50 [nM] (n = 3), ^natLu-labeled
Starred links: 1 amine or outer side, 2 acyl side, 3 side chain; linkers in the order of their positions; H or OH if unused. Non-standard residues stand in square brackets, D forms with d. Residues, ends and D or L forms follow the SMILES beside them. *: point of attachment. X1 = CC(C)(C)[Si](F)(c1ccc(C[N+](C)(C)CC(=O)*)cc1)C(C)(C)C; DOTA = O=C(O)CN1CCN(CC(=O)O)CCN(CC(=O)*)CCN(CC(=O)O)CC1; d(γGlu) = O=C(O)[C@@H](CCC(=O)[*:2])N[*:1]; 1Nal = N[C@@H](Cc1cccc2ccccc12)C(=O)O; PEG6 = NCCOCCOCCOCCOCCOCCOCCC(=O)O; PEG5 = NCCOCCOCCOCCOCCOCCC(=O)O; NMeNle = CCCC[C@H](NC)C(=O)O; PEG4 = NCCOCCOCCOCCOCCC(=O)O; dDap = NC[C@@H](N)C(=O)O
measured-quantity: IC50

Enquiry: Field request: IC50 | item: CCCC[C@@H](C(=O)N[C@@H](CC(=O)O)C(=O)N[C@@H](Cc1cccc2ccccc12)C(N)=O)N(C)C(=O)[C@H](Cc1c[nH]c2ccccc12)NC(=O)CNC(=O)CN1CCN(CC(=O)O)CCN(CC(=O)O)CCN(CC(=O)O)CC1 [DOTA-CCK-58, DOTA-Gly-Trp-(N-Me)Nle-Asp-1-Nal-NH2] ({DOTA}-GW[NMeNle]D[1Nal]-NH2)
Return: 98.9 nM

Enquiry: Field request: IC50 | item: CCCC[C@@H](C(=O)N[C@@H](CC(=O)O)C(=O)N[C@@H](Cc1cccc2ccccc12)C(N)=O)N(C)C(=O)[C@H](Cc1c[nH]c2ccccc12)NC(=O)CCOCCOCCOCCOCCOCCOCCNC(=O)CC[C@@H](NC(=O)CN1CCN(CC(=O)O)CCN(CC(=O)O)CCN(CC(=O)O)CC1)C(=O)O [DOTA-CCK-79] ({DOTA-d(γGlu)-PEG6}-W[NMeNle]D[1Nal]-NH2)
Return: 7 nM

Enquiry: Field request: IC50 | item: CCCC[C@H](NC(=O)[C@H](Cc1c[nH]c2ccccc12)NC(=O)CNC(=O)[C@H](Cc1ccc(O)cc1)NC(=O)[C@H](C)NC(=O)CC[C@@H](NC(=O)CC[C@@H](NC(=O)CC[C@@H](NC(=O)CC[C@@H](NC(=O)CC[C@@H](NC(=O)CC[C@@H](NC(=O)[C@@H](CNC(=O)c1ccc([Si](F)(C(C)(C)C)C(C)(C)C)cc1)NC(=O)CN1CCN(CC(=O)O)CCN(CC(=O)O)CCN(CC(=O)O)CC1)C(=O)O)C(=O)O)C(=O)O)C(=O)O)C(=O)O)C(=O)O)C(=O)N[C@@H](CC(=O)O)C(=O)N[C@@H](Cc1ccccc1)C(N)=O
Return: 7.54 nM

Enquiry: Field request: IC50 | item: CCCC[C@@H](C(=O)N[C@@H](CC(=O)O)C(=O)N[C@@H](Cc1cccc2ccccc12)C(N)=O)N(C)C(=O)[C@H](Cc1c[nH]c2ccccc12)NC(=O)CCOCCOCCOCCOCCNC(=O)CC[C@@H](NC(=O)CCOCCOCCOCCOCCOCCNC(=O)CC[C@@H](NC(=O)[C@@H](CNC(=O)c1ccc([Si](F)(C(C)(C)C)C(C)(C)C)cc1)NC(=O)CN1CCN(CC(=O)O)CCN(CC(=O)O)CCN(CC(=O)O)CC1)C(=O)O)C(=O)O
Return: 15.4 nM

Enquiry: Field request: IC50 | item: CCCC[C@@H](C(=O)N[C@@H](CC(=O)O)C(=O)N[C@@H](Cc1cccc2ccccc12)C(N)=O)N(C)C(=O)[C@H](Cc1c[nH]c2ccccc12)NC(=O)CCOCCOCCOCCOCCNC(=O)CC[C@@H](NC(=O)CCOCCOCCOCCOCCOCCOCCOCCOCCNC(=O)CC[C@@H](NC(=O)[C@@H](CNC(=O)c1cc(C(=O)O)cc([Si](F)(C(C)(C)C)C(C)(C)C)c1)NC(=O)CN1CCN(CC(=O)O)CCN(CC(=O)O)CCN(CC(=O)O)CC1)C(=O)O)C(=O)O
Return: 52.3 nM

Enquiry: Field request: IC50 | item: CCCC[C@@H](C(=O)N[C@@H](CC(=O)O)C(=O)N[C@@H](Cc1cccc2ccccc12)C(N)=O)N(C)C(=O)[C@H](Cc1c[nH]c2ccccc12)NC(=O)CNC(=O)[C@H](Cc1ccc(O)cc1)NC(=O)[C@H](C)NC(=O)CNC(=O)CN1CCN(CC(=O)O)CCN(CC(=O)O)CCN(CC(=O)O)CC1 [DOTA-CCK-57] ({DOTA}-GAYGW[NMeNle]D[1Nal]-NH2)
Return: 5.6 nM

Enquiry: Field request: IC50 | item: CCCC[C@@H](C(=O)N[C@@H](CC(=O)O)C(=O)N[C@@H](Cc1cccc2ccccc12)C(N)=O)N(C)C(=O)[C@H](Cc1c[nH]c2ccccc12)NC(=O)CCOCCOCCOCCOCCNC(=O)CC[C@@H](NC(=O)CCOCCOCCOCCOCCOCCOCCOCCOCCOCCOCCOCCOCCNC(=O)CC[C@@H](NC(=O)[C@@H](CNC(=O)c1cc(C(=O)O)cc([Si](F)(C(C)(C)C)C(C)(C)C)c1)NC(=O)CN1CCN(CC(=O)O)CCN(CC(=O)O)CCN(CC(=O)O)CC1)C(=O)O)C(=O)O
Return: 43.1 nM

Enquiry: Field request: IC50 | item: CCCC[C@@H](C(=O)N[C@@H](CC(=O)O)C(=O)N[C@@H](Cc1cccc2ccccc12)C(N)=O)N(C)C(=O)[C@H](Cc1c[nH]c2ccccc12)NC(=O)CCOCCOCCOCCOCCNC(=O)CC[C@@H](NC(=O)CCOCCOCCOCCOCCOCCNC(=O)[C@@H](CNC(=O)C[N+](C)(C)Cc1ccc([Si](F)(C(C)(C)C)C(C)(C)C)cc1)NC(=O)CN1CCN(CC(=O)O)CCN(CC(=O)O)CCN(CC(=O)O)CC1)C(=O)O [DOTA-rhCCK-90] ({DOTA}-[dDap](X1)[PEG5][d(γGlu)][PEG4]W[NMeNle]D[1Nal]-NH2)
Return: 9.85 nM
